System: 292921-168-R-J2-PDC complex spheroid growth
Experiment: Anticancer human tumor 292921-168-R-J2-PDC patient-derived pancreatic carcinoma cell line growth inhibition [AhR]
Conditions: second compound 1 µM; first compound 1 µM; stronger effect = lower value
Quantity Kind: viability, T/C (%)
Note: unit % is implicit; provide only the numeric part.

Guide cases for viability, T/C, answers given:
Molecule | Obs Value
COc1cc(Nc2ncc3c(n2)-c2ccc(Cl)cc2C(c2c(F)cccc2OC)=NC3)ccc1C(=O)O + CC(CO)NC(=O)c1cc(-c2ccc(Cl)cc2)nn(-c2cnn(C)c2)c1=O | 47.9
COc1cc(Nc2ncc3c(n2)-c2ccc(Cl)cc2C(c2c(F)cccc2OC)=NC3)ccc1C(=O)O + Cc1ccccc1N=Nc1ccc(NC(=O)c2ccnn2C)c(C)c1 | 42.7

Input line: Give its viability, T/C value. Item: COc1ccc([C@@H](O)c2cc(-c3ncnc4cc(N5CCOCC5)ccc34)c(F)cc2Cl)nn1 + Cc1cncc(-c2nc(NCCc3c[nH]c4ccccc34)c3ncn(C(C)C)c3n2)c1
Output line: 58.7

---

System: 292921-168-R-J2-PDC complex spheroid growth
Assay: Anticancer human tumor 292921-168-R-J2-PDC cell line growth inhibition [AhR];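 further: spheroids exposed to compounds for seven days after three days of growth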
Conditions: second compound 1 µM; first compound 1 µM; stronger effect = lower value
Each record gets a class by viability, T/C: lower: < 40%; middle: ≥ 40% and < 80%; upper: ≥ 80%

Solved cases below.
Compound | Test System | Category
CC1COCCN1c1cc(C2(S(C)(=N)=O)CC2)nc(-c2ccnc3[nH]ccc23)n1 (stereo not given) + CC(CO)NC(=O)c1cc(-c2ccc(Cl)cc2)nn(-c2cnn(C)c2)c1=O | 292921-168-R-J2-PDC complex spheroid growth | upper
CC1(C)CCC(CN2CCN(c3ccc(C(=O)NS(=O)(=O)c4ccc(NCC5CCOCC5)c([N+](=O)[O-])c4)c(Oc4cnc5[nH]ccc5c4)c3)CC2)=C(c2ccc(Cl)cc2)C1 + Cc1ccccc1N=Nc1ccc(NC(=O)c2ccnn2C)c(C)c1 | 292921-168-R-J2-PDC complex spheroid growth | upper
COc1cc(C2c3cc4c(cc3C(OC3OC5COC(C)OC5C(O)C3O)C3COC(=O)C23)OCO4)cc(OC)c1O (stereo not given) + Cc1ccccc1N=Nc1ccc(NC(=O)c2ccnn2C)c(C)c1 | 292921-168-R-J2-PDC complex spheroid growth | lower
CC1COCCN1c1cc(C2(S(C)(=N)=O)CC2)nc(-c2ccnc3[nH]ccc23)n1 (stereo not given) + Cc1ccccc1N=Nc1ccc(NC(=O)c2ccnn2C)c(C)c1 | 292921-168-R-J2-PDC complex spheroid growth | middle
COc1cccc2c1C(=O)c1c(O)c3c(c(O)c1C2=O)CC(O)(C(=O)CO)CC3OC1CC(N)C(O)C(C)O1 (stereo not given) + Cc1ccccc1N=Nc1ccc(NC(=O)c2ccnn2C)c(C)c1 | 292921-168-R-J2-PDC complex spheroid growth | lower

Input line: Hello team, could you let me know which band the following compound falls into: COc1ccc([C@@H](O)c2cc(-c3ncnc4cc(N5CCOCC5)ccc34)c(F)cc2Cl)nn1 + Cc1ccccc1N=Nc1ccc(NC(=O)c2ccnn2C)c(C)c1
Output line: middle

Input line: Hello team, could you let me know which band the following compound falls into: O=C(C=Cc1cccc(S(=O)(=O)Nc2ccccc2)c1)NO + Cc1ccccc1N=Nc1ccc(NC(=O)c2ccnn2C)c(C)c1
Output line: lower

Input line: Hello team, could you let me know which band the following compound falls into: CC(C)c1c(-c2ccccc2)nc2c(C#N)c[nH]n2c1=O + Cc1ccccc1N=Nc1ccc(NC(=O)c2ccnn2C)c(C)c1
Output line: upper

Input line: Hello team, could you let me know which band the following compound falls into: NS(=O)(=O)OCC1CC(n2ccc3c(NC4CCc5ccccc54)ncnc32)CC1O (stereo not given) + Cc1ccccc1N=Nc1ccc(NC(=O)c2ccnn2C)c(C)c1
Output line: lower

---

Each entry below carries its reported viability, T/C.
Tested on: 292921-168-R-J2-PDC complex spheroid growth
Test: Anticancer human tumor 292921-168-R-J2-PDC cell line growth inhibition [AhR];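 further: spheroids exposed to compounds for seven days after three days of growth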
Details: second compound 1 µM; first compound 0.316 µM; stronger effect = lower value

Guide cases for viability, T/C, answers given:
Molecule | Quantity Kind | Obs Value
CC1COCCN1c1cc(C2(S(C)(=N)=O)CC2)nc(-c2ccnc3[nH]ccc23)n1 (stereo not drawn) + Cc1cncc(-c2nc(NCCc3c[nH]c4ccccc34)c3ncn(C(C)C)c3n2)c1 | viability, T/C | 88.4%
Nc1ccccc1NC(=O)c1ccc(CNC(=O)OCc2cccnc2)cc1 + Cc1ccccc1N=Nc1ccc(NC(=O)c2ccnn2C)c(C)c1 | viability, T/C | 52.6%

Shift focus to the following entry.
Input line: Give its viability, T/C value. Item: CC(C)c1c(-c2ccccc2)nc2c(C#N)c[nH]n2c1=O + Cc1ccccc1N=Nc1ccc(NC(=O)c2ccnn2C)c(C)c1
Output line: 80.8%

---

System: 292921-168-R-J2-PDC complex spheroid growth
Assay: Anticancer human tumor 292921-168-R-J2-PDC cell line growth inhibition [AhR];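 further: spheroids exposed to compounds for seven days after three days of growth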
Conditions: second compound 0.316 µM; first compound 0.1 µM; stronger effect = lower value
Quantity Kind: viability, T/C (%)
Note: unit % is implicit; provide only the numeric part.

Compound | Obs Value
Cn1ncnc1C1c2n[nH]c(=O)c3cc(F)cc(c23)NC1c1ccc(F)cc1 (stereo unspecified) + CC(CO)NC(=O)c1cc(-c2ccc(Cl)cc2)nn(-c2cnn(C)c2)c1=O | 79.9
Nc1ncn(C2CC(O)C(CO)O2)c(=O)n1 (stereo unspecified) + Cc1ccccc1N=Nc1ccc(NC(=O)c2ccnn2C)c(C)c1 | 76.5
CC1COCCN1c1cc(C2(S(C)(=N)=O)CC2)nc(-c2ccnc3[nH]ccc23)n1 (stereo unspecified) + Cc1ccccc1N=Nc1ccc(NC(=O)c2ccnn2C)c(C)c1 | 84.3
COc1cc(C2c3cc4c(cc3C(OC3OC5COC(C)OC5C(O)C3O)C3COC(=O)C23)OCO4)cc(OC)c1O (stereo unspecified) + Cc1cncc(-c2nc(NCCc3c[nH]c4ccccc34)c3ncn(C(C)C)c3n2)c1 | 73.6
CC[C@@]1(O)C(=O)OCc2c1cc1n(c2=O)Cc2cc3c(CN(C)C)c(O)ccc3nc2-1 + Cc1cncc(-c2nc(NCCc3c[nH]c4ccccc34)c3ncn(C(C)C)c3n2)c1 | 23.7

Input line: Give its viability, T/C value. Item: NS(=O)(=O)OCC1CC(n2ccc3c(NC4CCc5ccccc54)ncnc32)CC1O (stereo unspecified) + Cc1ccccc1N=Nc1ccc(NC(=O)c2ccnn2C)c(C)c1
Output line: 77.9

---

Test system: 292921-168-R-J2-PDC complex spheroid growth
Assay: Anticancer human tumor 292921-168-R-J2-PDC cell line growth inhibition [AhR]; active means viability on the fitted dose curve at most 10% of control; inactive means the rest;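 further: spheroids exposed to compounds for seven days after three days of growth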
Settings: second compound 10 µM; first compound 0.3 µM
Write down the outcome that applies. Available outcomes: active, inactive

Solved cases below.
Molecule | Category
Nc1ncn(C2CC(O)C(CO)S2)c(=O)n1 (stereo not drawn) + Cc1cncc(-c2nc(NCCc3c[nH]c4ccccc34)c3ncn(C(C)C)c3n2)c1 | inactive
CC(C)CC(NC(=O)C(Cc1ccccc1)NC(=O)c1cnccn1)B(O)O (stereo not drawn) + Cc1ccccc1N=Nc1ccc(NC(=O)c2ccnn2C)c(C)c1 | active

Moving on to the next molecule.
Input line: # lookup: test call for O=C(C=Cn1cnc(-c2cc(C(F)(F)F)cc(C(F)(F)F)c2)n1)NNc1cnccn1 + CC(CO)NC(=O)c1cc(-c2ccc(Cl)cc2)nn(-c2cnn(C)c2)c1=O
Output line: inactive

---

Tested on: 292921-168-R-J2-PDC complex spheroid growth
Experiment: Anticancer human tumor 292921-168-R-J2-PDC cell line growth inhibition [AhR];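 further: spheroids exposed to compounds for seven days after three days of growth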
Conditions: curve of first compound; second compound 0.1 µM
Each entry below carries its reported IC50.
Note: unit nM is implicit; provide only the numeric part.

Input line: Give its IC50 value. Item: CC(C)CC(NC(=O)C(Cc1ccccc1)NC(=O)c1cnccn1)B(O)O (configuration not stated) + Cc1cncc(-c2nc(NCCc3c[nH]c4ccccc34)c3ncn(C(C)C)c3n2)c1
Output line: 9.77

Input line: Give its IC50 value. Item: Nc1ccccc1NC(=O)c1ccc(CNC(=O)OCc2cccnc2)cc1 + CC(CO)NC(=O)c1cc(-c2ccc(Cl)cc2)nn(-c2cnn(C)c2)c1=O
Output line: 190

Input line: Give its IC50 value. Item: NS(=O)(=O)OCC1CC(n2ccc3c(NC4CCc5ccccc54)ncnc32)CC1O (configuration not stated) + Cc1cncc(-c2nc(NCCc3c[nH]c4ccccc34)c3ncn(C(C)C)c3n2)c1
Output line: 227

Input line: Give its IC50 value. Item: O=C(C=Cc1cccc(S(=O)(=O)Nc2ccccc2)c1)NO + Cc1ccccc1N=Nc1ccc(NC(=O)c2ccnn2C)c(C)c1
Output line: 579

Input line: Give its IC50 value. Item: CCc1c2c(nc3ccc(O)cc13)-c1cc3c(c(=O)n1C2)COC(=O)[C@]3(O)CC + CC(CO)NC(=O)c1cc(-c2ccc(Cl)cc2)nn(-c2cnn(C)c2)c1=O
Output line: 1.79

The measured values listed here are drawn from PubChem BioAssay AID1918994.
